- Target or system: N-methyl-D-aspartate (NMDA) receptors ([3H]-MK-801 binding)
- Assay procedure: Displacement of [3H]-MK-801 binding, crude synaptosomal membrane fraction (P2) from rat cerebral cortex
- Experimental conditions: Table II; displacement of [3H]-MK-801, rat cerebral cortex membranes; read-out: Displacement potencies Ki
pKi: −log10 of the molar value.
Experimental endpoint: pKi

Clc1ccc2c(c1)C1NC(Cc3ccccc31)C2 (stereo not shown) | 6.82
CCC12NC(Cc3ccccc31)Cc1ccccc12 | 6.92
CC12NC(Cc3ccccc31)Cc1ccccc12 | 6.85
CN1C2Cc3ccccc3C1(C)c1ccccc1C2 | 5.92

---

Catalogue of molecules with associated pKi
- Target or system: N-methyl-D-aspartate (NMDA) receptors ([3H]-MK-801 binding)
- Assay procedure: Displacement of [3H]-MK-801 binding, crude synaptosomal membrane fraction (P2) from rat cerebral cortex
- Experimental conditions: Table I; displacement of [3H]-MK-801, rat cerebral cortex membranes; read-out: Displacement potencies Ki
pKi: −log10 of the molar value.
Experimental endpoint: pKi

CC12c3ccccc3CC(c3ccccc31)N2CCO [L-641,042] | 4.89
CN1C2(C)Cc3ccccc3C1(C)c1ccccc12 [L-640,688] | 6.15
CN1C2Cc3ccccc3C1(C)c1ccccc12 [L-638,275] | 6.08
CC12NC(Cc3ccccc31)c1ccc(O)cc12 [L-665,039] | 7.70
CCC12NC(Cc3ccccc31)c1ccccc12 [L-639,057] | 7.30
CC12NC(Cc3ccccc31)c1ccccc12 [L-637,939] | 6.25
CC12NC(Cc3ccccc31)c1ccc(Br)cc12 [L-639,442] | 6.74
C=CCN1C2Cc3ccccc3C1(C)c1ccccc12 [L-639,015] | 5.47
CCCN1C2Cc3ccccc3C1(C)c1ccccc12 [L-645,156] | 6.35
CN1C2Cc3ccccc3C1(C)c1ccccc12 [L-645,114] | 6.29
COc1ccc2c(c1)CC1NC2(C)c2ccccc21 [L-641,074] | 6.22
CC12NC(Cc3ccc(Cl)cc31)c1ccccc12 [L-641,294] | 8.00
OCCC12NC(Cc3ccccc31)c1ccccc12 [L-639,902] | 6.59
CC12NC(Cc3ccc(Br)cc31)c1ccccc12 [L-639,441] | 7.70
CC12NC(Cc3ccccc31)c1ccccc12 (single isomer, unassigned) [L-640,689] | 7.40
CN1C2Cc3ccccc3C1c1ccccc12 [L-638,276] | 4.92
CC12NC(Cc3ccccc31)c1ccccc12 (single isomer, unassigned) [L-640,690] | 6.49
CC12NC(Cc3ccccc31)c1cc(O)ccc12 [L-641,285] | 7.30
CC12NC(Cc3ccccc31)c1ccc(Cl)cc12 [L-641,368] | 7.10
COc1ccc2c(c1)C1Cc3ccccc3C2(C)N1 [L-641,086] | 7.40
CCCC12NC(Cc3ccccc31)c1ccccc12 [L-639,470] | 5.07
CC12NC(Cc3cc(O)ccc31)c1ccccc12 [L-641,291] | 6.47
